Measurement Target: Sodium-dependent noradrenaline transporter (Homo sapiens, UniProt P23975)
Sequence (P23975 whole entry): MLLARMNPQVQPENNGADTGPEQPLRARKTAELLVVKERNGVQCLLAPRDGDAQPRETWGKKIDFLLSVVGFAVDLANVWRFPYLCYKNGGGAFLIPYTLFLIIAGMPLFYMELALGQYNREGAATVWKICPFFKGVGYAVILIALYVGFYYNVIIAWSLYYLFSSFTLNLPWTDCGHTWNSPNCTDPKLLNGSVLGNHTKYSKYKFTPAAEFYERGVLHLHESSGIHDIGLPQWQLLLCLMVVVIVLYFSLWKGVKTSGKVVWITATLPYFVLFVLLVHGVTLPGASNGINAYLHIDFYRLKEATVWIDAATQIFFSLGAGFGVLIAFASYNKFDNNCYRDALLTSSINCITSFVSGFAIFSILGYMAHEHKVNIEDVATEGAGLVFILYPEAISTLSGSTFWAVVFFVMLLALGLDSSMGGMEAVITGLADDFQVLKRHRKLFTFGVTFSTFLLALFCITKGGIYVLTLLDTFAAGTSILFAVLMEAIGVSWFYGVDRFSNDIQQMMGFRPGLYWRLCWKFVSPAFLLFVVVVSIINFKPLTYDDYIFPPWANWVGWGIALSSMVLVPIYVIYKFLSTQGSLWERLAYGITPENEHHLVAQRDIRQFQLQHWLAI
Assay Summary: DRUGMATRIX: Norepinephrine Transporter radioligand binding (ligand: [125I] RTI-55)
Type: cell membranes, MDCK, Membrane
Cond: Not Active = under 50% inhibition at 10 µM; read-out: IC50
# pIC50 annotations
In simple prose, pIC50 is minus the logarithm base ten of a concentration in moles per litre.

Below, each entry is followed by its recorded pIC50 result.
Compound: Oc1c(Cl)cc(Cl)cc1Sc1cc(Cl)cc(Cl)c1O [BITHIONOL]
pIC50: 5.91
--
Compound: O=C1c2c(O)ccc(O)c2C(=O)c2c(NCCNCCO)ccc(NCCNCCO)c21 [MITOXANTRONE]
pIC50: 5.30
--
Compound: Clc1ccccc1C(c1ccccc1)(c1ccccc1)n1ccnc1 [CLOTRIMAZOLE]
pIC50: 5.10
--
Compound: CCCCCCCCCc1ccc(O)cc1 [4-NONYLPHENOL]
pIC50: 5.90
--
Compound: Clc1ccc(C(c2ccccc2Cl)C(Cl)Cl)cc1 (stereo unspecified) [MITOTANE]
pIC50: 6.09

From here, focus on the item given below.
Which value of pIC50 has been reported for CC(CCc1ccccc1)NCC(O)c1ccc(O)c(C(N)=O)c1 (stereo unspecified) [LABETALOL] in the records?
5.47
